Test: organ distribution of DXR after administration free or in liposomes
Type: in vivo
Conditions: intestine; 1 hr; read-out: DXR level in Intestine
value_kind: concentration at 1 h (ng/g)
Express the result in ng/g but write the number alone.

Form field concentration at 1 h, entry COc1cccc2c1C(=O)c1c(O)c3c(c(O)c1C2=O)C[C@@](O)(C(=O)CO)C[C@@H]3O[C@H]1C[C@H](N)[C@H](O)[C@H](C)O1 [DXR, doxorubicin] : 5800

* * *

Experiment: organ distribution of DXR after administration free or in liposomes
Assay type: in vivo
Details: liver; 24 hrs; read-out: DXR level in Liver
value_kind: concentration at 24 h

Form field concentration at 24 h, entry COc1cccc2c1C(=O)c1c(O)c3c(c(O)c1C2=O)C[C@@](O)(C(=O)CO)C[C@@H]3O[C@H]1C[C@H](N)[C@H](O)[C@H](C)O1 [DXR, doxorubicin] : 3800 ng/g
